Test system: 786-0 renal
Experiment: NCI-60 one-dose screen, 48 h
Conditions: 10 µM unless noted
This is part of a sample that, as a whole, favours compounds with a hit. Of some 83,000 tested, about 20% had one in any assay. Active and inactive are the calls of the source. The calls were made as follows: active = growth percent below 10; inactive = the rest.
Possible outcomes: label 1 = active, label 0 = inactive

| COMPOUND | CLASSIFICATION |
| --- | --- |
| COc1cc(C2CC(c3cccc(Nc4ccncc4)c3)=NN2C(C)=O)cc(OC)c1OC (configuration not stated) | label 0 |
| CCOC(=O)N1CCN(CCCCl)CC1 | label 0 |
| Clc1ccc2c(c1)c(-c1ccccc1)nc1nncn12 | label 0 |
| COc1ccc(C(O)c2cc3c(N)c(C(=O)Nc4cccc(Br)c4C)sc3nc2C)cc1 (configuration not stated) | label 0 |
| Nc1cc(N)c2cccnc2c1O | label 0 |
| O=S(=O)(c1ccc(N/N=C\c2ccccc2)cc1)c1ccc(N/N=C/c2ccccc2)cc1 | label 0 |
| Cc1ccc2[nH]c(=S)n(-c3ccc(S(=O)(=O)Nc4ccc(Cl)nn4)cc3)c(=O)c2c1 | label 0 |
| Cc1ccc(C2CC(c3cccc(Nc4ccncc4)c3)=NN2c2ccc(Cl)cc2)cc1 (configuration not stated) | label 1 |
| O=C(CSc1nc2sc3c(c2c(=O)n1Cc1ccccc1)CCCC3)N1CCN(c2ccccc2)CC1 | label 0 |
| Cc1cccc(C)c1-c1cc(Cc2ccc(Cl)cc2)c(=O)[nH]n1 | label 0 |
| COc1ccc(/C=C/c2n[nH]c3ccc(N4CCOC4=O)cc23)cc1 | label 0 |
| COc1ccc(-c2nn(Cc3ccccc3)c3c2-c2oncc2CC3)cc1OC | label 0 |
